Can you tell me pest or weed control at 100 ppm for the items I'm about to list?
Tested on: Laodelphax striatellus
ASSAY REMARKS: Pesticidal test against Laodelphax striatellus (rice seedling spray)
Type: in vivo
TEST CONTEXT: 144 h, concentration 100 ppm, 3-stage larvae, examined after 6 days, 25° C., read-out: pesticidal rate

Given O=C(Nc1cccc(C(=O)Nc2c(I)cc(C(F)(C(F)(F)F)C(F)(F)C(F)(F)F)cc2C(F)(F)F)c1F)c1ccccc1F (stereo not drawn) , respond with its pest or weed control at 100 ppm.
≥ 70%

Tell me measured pest or weed control at 100 ppm for "CN(C(=O)c1c(F)cccc1F)c1cccc(C(=O)Nc2c(Br)cc(C(F)(C(F)(F)F)C(F)(F)F)cc2Br)c1F" please.
≥ 70%

Read the entry "CN(C(=O)c1ccccc1F)c1cccc(C(=O)Nc2c(Br)cc(C(F)(C(F)(F)F)C(F)(F)F)cc2Br)c1F" and write its reported pest or weed control at 100 ppm.
≥ 70%

Please list pest or weed control at 100 ppm recorded for the compound "CN(C(=O)c1cccc(C#N)c1)c1cccc(C(=O)Nc2c(I)cc(C(F)(C(F)(F)F)C(F)(F)F)cc2C(F)(F)F)c1"
≥ 70%

Supply measured pest or weed control at 100 ppm of CN(C(=O)c1ccccc1)c1cccc(C(=O)Nc2c(I)cc(C(F)(C(F)(F)F)C(F)(F)C(F)(F)F)cc2C(F)(F)F)c1F (stereo not drawn) in your reply.
≥ 70%

Give a short answer stating reported pest or weed control at 100 ppm for O=C(Nc1c(I)cc(C(F)(C(F)(F)F)C(F)(F)C(F)(F)F)cc1C(F)(F)F)c1cccc(NC(=O)c2ccccc2F)c1 (stereo not drawn) .
≥ 70%

Dear colleague, please send me the reported pest or weed control at 100 ppm for CN(C(=O)c1cccc(F)c1)c1cccc(C(=O)Nc2c(Br)cc(C(F)(C(F)(F)F)C(F)(F)C(F)(F)F)cc2Br)c1 (stereo not drawn) when you can.
≥ 70%

Give pest or weed control at 100 ppm for the following compound: "CN(C(=O)c1ccccc1)c1cccc(C(=O)Nc2c(Br)cc(C(F)(C(F)(F)F)C(F)(F)F)cc2C(F)(F)F)c1F"
≥ 70%

Quote pest or weed control at 100 ppm reported for "CN(C(=O)c1c(F)cccc1F)c1cccc(C(=O)Nc2c(I)cc(C(F)(C(F)(F)F)C(F)(F)F)cc2I)c1F" please.
≥ 70%

Please supply the value of reported pest or weed control at 100 ppm for the item N#Cc1cccc(C(=O)Nc2cccc(C(=O)Nc3c(Br)cc(C(F)(C(F)(F)F)C(F)(F)C(F)(F)F)cc3Br)c2)c1 (stereo not drawn)
≥ 70%

Quick one: give measured pest or weed control at 100 ppm for CN(C(=O)c1cccnc1Cl)c1cccc(C(=O)Nc2c(I)cc(C(F)(C(F)(F)F)C(F)(F)C(F)(F)F)cc2C(F)(F)F)c1F (stereo not drawn)
≥ 70%

Determine its reported pest or weed control at 100 ppm: CN(C(=O)c1ccc(F)cc1)c1cccc(C(=O)Nc2c(Br)cc(C(F)(C(F)(F)F)C(F)(F)C(F)(F)F)cc2Br)c1 (stereo not drawn)
≥ 70%

Look up and report measured pest or weed control at 100 ppm for this entry: "CN(C(=O)c1ccc(F)cc1)c1cccc(C(=O)Nc2c(Br)cc(C(F)(C(F)(F)F)C(F)(F)F)cc2C(F)(F)F)c1F"
≥ 70%

Item "O=C(Nc1c(Br)cc(C(F)(C(F)(F)F)C(F)(F)F)cc1C(F)(F)F)c1cccc(NC(=O)c2cccnc2Cl)c1" : provide pest or weed control at 100 ppm
≥ 70%

Please give the documented pest or weed control at 100 ppm of N#Cc1cccc(C(=O)Nc2cccc(C(=O)Nc3c(I)cc(C(F)(C(F)(F)F)C(F)(F)C(F)(F)F)cc3C(F)(F)F)c2F)c1 (stereo not drawn)
≥ 70%

Assign pest or weed control at 100 ppm to the following record: "CN(C(=O)c1cccc(C#N)c1)c1cccc(C(=O)Nc2c(I)cc(C(F)(C(F)(F)F)C(F)(F)F)cc2C(F)(F)F)c1F"
≥ 70%

// fetch pest or weed control at 100 ppm given entry "CN(C(=O)c1ccc(F)nc1)c1cccc(C(=O)Nc2c(Br)cc(C(F)(C(F)(F)F)C(F)(F)F)cc2C(F)(F)F)c1F"
≥ 70%

Give the reported pest or weed control at 100 ppm for this compound. "CN(C(=O)c1cccc(F)c1)c1cccc(C(=O)Nc2c(I)cc(C(F)(C(F)(F)F)C(F)(F)F)cc2I)c1F"
≥ 70%

Give me measured pest or weed control at 100 ppm, please, for this compound: O=C(Nc1c(Br)cc(C(F)(C(F)(F)F)C(F)(F)C(F)(F)F)cc1C(F)(F)F)c1cccc(NC(=O)c2cccnc2Cl)c1 (stereo not drawn)
≥ 70%

Quickly give me recorded pest or weed control at 100 ppm for "O=C(Nc1c(I)cc(C(F)(C(F)(F)F)C(F)(F)F)cc1I)c1cccc(NC(=O)c2c(F)cccc2F)c1F"
≥ 70%

Quickly give me recorded pest or weed control at 100 ppm for "O=C(Nc1cccc(C(=O)Nc2c(I)cc(C(F)(C(F)(F)F)C(F)(F)F)cc2C(F)(F)F)c1F)c1cccc(F)c1"
≥ 70%

Output measured pest or weed control at 100 ppm for this item: "O=C(Nc1cccc(C(=O)Nc2c(Br)cc(C(F)(C(F)(F)F)C(F)(F)F)cc2C(F)(F)F)c1)c1ccc(Cl)nc1"
≥ 70%

Tell me pest or weed control at 100 ppm reported for O=C(Nc1c(I)cc(C(F)(C(F)(F)F)C(F)(F)C(F)(F)F)cc1I)c1cccc(NC(=O)c2c(F)cccc2F)c1 (stereo not drawn)
≥ 70%

Give pest or weed control at 100 ppm for the following compound: CN(C(=O)c1ccc(Cl)nc1)c1cccc(C(=O)Nc2c(Br)cc(C(F)(C(F)(F)F)C(F)(F)C(F)(F)F)cc2Br)c1F (stereo not drawn)
≥ 70%

For the compound O=C(Nc1cccc(C(=O)Nc2c(I)cc(C(F)(C(F)(F)F)C(F)(F)C(F)(F)F)cc2C(F)(F)F)c1F)c1ccc(Cl)nc1 (stereo not drawn) , give its measured pest or weed control at 100 ppm value.
≥ 70%

Quick one: give measured pest or weed control at 100 ppm for "O=C(Nc1cccc(C(=O)Nc2c(Br)cc(C(F)(C(F)(F)F)C(F)(F)F)cc2C(F)(F)F)c1F)c1ccc(F)cc1"
≥ 70%

Provide one value: measured pest or weed control at 100 ppm of O=C(Nc1c(Br)cc(C(F)(C(F)(F)F)C(F)(F)C(F)(F)F)cc1Br)c1cccc(NC(=O)c2c(F)cccc2F)c1F (stereo not drawn)
≥ 70%
